Hello, the source for this data is paper PMC10108742, in case you need it.

# tgt: hBuChE (Homo sapiens)
# Construct: purchased Sigma Aldrich
# Sequence (P06276 29-602): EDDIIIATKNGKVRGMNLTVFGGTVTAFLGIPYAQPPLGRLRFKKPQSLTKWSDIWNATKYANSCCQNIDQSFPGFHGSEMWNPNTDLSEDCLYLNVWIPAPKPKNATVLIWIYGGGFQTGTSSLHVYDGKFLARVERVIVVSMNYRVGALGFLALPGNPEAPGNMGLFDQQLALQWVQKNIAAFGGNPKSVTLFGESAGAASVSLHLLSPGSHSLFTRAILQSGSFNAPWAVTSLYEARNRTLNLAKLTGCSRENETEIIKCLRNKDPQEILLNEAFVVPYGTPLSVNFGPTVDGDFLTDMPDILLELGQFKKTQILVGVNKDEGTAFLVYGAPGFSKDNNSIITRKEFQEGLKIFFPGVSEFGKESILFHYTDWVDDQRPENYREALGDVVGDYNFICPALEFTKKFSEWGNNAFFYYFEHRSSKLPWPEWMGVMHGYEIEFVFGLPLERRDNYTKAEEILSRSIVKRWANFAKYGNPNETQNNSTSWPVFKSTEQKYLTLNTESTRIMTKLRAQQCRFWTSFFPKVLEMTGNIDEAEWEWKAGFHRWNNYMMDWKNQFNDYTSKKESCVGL
# protocol_description: hBuChE inhibition, Ellman's method
# Assay type: biochemical
# condition_notes: hBuChE from human serum; mean ± SD of three experiments; read-out: IC50 hBuChE
pIC50: −log10 of the molar value.
Exercise: for every item that follows, state its recorded pIC50.

molecule	pIC50
CC1(C)CC[C@]2(C(=O)NCCCNc3c4c(nc5c(Cl)cccc35)CCCC4)CC[C@]3(C)C(=CCC4[C@@]5(C)CC[C@H](O)C(C)(C)C5CC[C@]43C)C2C1 (stereo partly drawn) [Compound C2]	< 5.00
CC1(C)CC[C@]2(C(=O)NCCNc3c4c(nc5c(Cl)cccc35)CCCC4)CC[C@]3(C)C(=CCC4[C@@]5(C)CC[C@H](O)C(C)(C)C5CC[C@]43C)C2C1 (stereo partly drawn) [Compound C1]	< 5.00

stdin: Please report the recorded pIC50 for CC1(C)CC[C@]2(C(=O)NCCCCCCNc3c4c(nc5c(Br)cccc35)CCCC4)CC[C@]3(C)C(=CCC4[C@@]5(C)CC[C@H](O)C(C)(C)C5CC[C@]43C)C2C1 (stereo partly drawn) [Compound E5] .
stdout: < 5.00

###

# tgt: hAChE (Homo sapiens)
# Construct: purchased Sigma Aldrich
# Sequence (P22303 32-614): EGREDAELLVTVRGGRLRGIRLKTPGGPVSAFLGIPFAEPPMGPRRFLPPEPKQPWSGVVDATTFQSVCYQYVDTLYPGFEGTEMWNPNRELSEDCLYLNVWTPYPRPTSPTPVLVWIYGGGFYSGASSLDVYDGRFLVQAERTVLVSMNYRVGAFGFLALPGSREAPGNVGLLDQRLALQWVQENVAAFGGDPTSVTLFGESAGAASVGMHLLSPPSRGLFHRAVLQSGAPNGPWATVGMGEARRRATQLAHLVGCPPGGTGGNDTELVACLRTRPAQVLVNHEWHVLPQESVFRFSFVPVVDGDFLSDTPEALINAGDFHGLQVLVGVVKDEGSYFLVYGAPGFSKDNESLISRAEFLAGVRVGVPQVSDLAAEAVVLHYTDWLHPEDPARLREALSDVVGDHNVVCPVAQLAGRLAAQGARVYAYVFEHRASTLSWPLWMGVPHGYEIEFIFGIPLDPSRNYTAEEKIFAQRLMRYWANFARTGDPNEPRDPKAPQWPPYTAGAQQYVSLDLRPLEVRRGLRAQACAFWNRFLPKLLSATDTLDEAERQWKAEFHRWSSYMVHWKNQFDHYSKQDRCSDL
# protocol_description: biochemical
Exercise: for every item that follows, state its recorded IC50.

compound	IC50
CC1(C)CC[C@]2(C(=O)NCCNc3c4c(nc5cc(Br)ccc35)CCCC4)CC[C@]3(C)C(=CCC4[C@@]5(C)CC[C@H](O)C(C)(C)C5CC[C@]43C)C2C1 (stereo partly drawn) [Compound D1]	> 10 µM

Provide reported IC50 for each item, in the same order as listed.
1. CC1(C)CC[C@]2(C(=O)NCCCCCCNc3c4c(nc5c(F)cccc35)CCCC4)CC[C@]3(C)C(=CCC4[C@@]5(C)CC[C@H](O)C(C)(C)C5CC[C@]43C)C2C1 (stereo partly drawn)
2. CC1(C)CC[C@]2(C(=O)NCCCCCCNc3c4c(nc5c(Br)cccc35)CCCC4)CC[C@]3(C)C(=CCC4[C@@]5(C)CC[C@H](O)C(C)(C)C5CC[C@]43C)C2C1 (stereo partly drawn)

stdout:
1. > 10 µM
2. > 10 µM
